# Protocol description: gradient 5% acetonitrile 3 min, to 50% in 2 min, to 85% in 15 min, held 3 min, 100 µL/min
# Test conditions: column: Zorbax Extend-C18 2.1 x 50 mm; eluents: water / acetonitrile, 0.1% formic acid
Parameter threshold = 700 s. Response is criterion met when RP-LC retention time meets or exceeds it, else criterion not met.

The examples below pair each entry with its known result.
>  <Molecule>
Cc1ccccc1-c1nnc(CSc2nnc(NC(=O)c3ccccc3C(F)(F)F)s2)o1

>  <Answer label>
criterion met

$$$$
>  <Molecule>
CCn1ccc2cc(S(=O)(=O)N3CCC(C(=O)NCCC(C)N4CCCC4)CC3)ccc21 (stereo not drawn)

>  <Answer label>
criterion not met

$$$$
>  <Molecule>
Cc1cc(C)cc(N2CCC(NC(=O)Cc3cccs3)C2=O)c1 (stereo not drawn)

>  <Answer label>
criterion met

$$$$

### Prompt Please tell me: is the molecule N#Cc1ccc(S(=O)(=O)N2CCOCCNC(=O)[C@H]3CCCC[C@H]32)cc1 at or over 700 s in terms of RP-LC retention time?
### Response criterion met

### Prompt Please tell me: is the molecule CCOC(=O)N1CCN(C(=O)CSc2nccc3c(OC)cccc23)CC1 at or over 700 s in terms of RP-LC retention time?
### Response criterion met

### Prompt Please tell me: is the molecule CC(=O)Nc1nc(N2CCC(C(=O)NCc3cccnc3)CC2)sc1C(=O)N1CCCC1 at or over 700 s in terms of RP-LC retention time?
### Response criterion not met

### Prompt Please tell me: is the molecule O=C(Cn1cnc2c(nc3n2CCCCC3)c1=O)NCc1ccco1 at or over 700 s in terms of RP-LC retention time?
### Response criterion not met

### Prompt Please tell me: is the molecule NC(=O)C1CCN(C(=O)C2CCN(S(=O)(=O)Cc3ccc(Cl)cc3)CC2)CC1 at or over 700 s in terms of RP-LC retention time?
### Response criterion not met

### Prompt Please tell me: is the molecule Cc1cc(C)c(S(=O)(=O)Nc2cc(-c3cn4ccccc4n3)ccc2C)cc1C at or over 700 s in terms of RP-LC retention time?
### Response criterion met

### Prompt Please tell me: is the molecule CCN1CCN(c2ccc(NC(C)=O)cn2)C1=O at or over 700 s in terms of RP-LC retention time?
### Response criterion not met
